Test: soluble fraction after stress (log2 fold change); higher = more stays soluble; pooled small domains, quantitative proteomics
Settings: stress: 50 degC
Rule: soluble fraction (log2) under -0.02 gives FALSE, otherwise TRUE.

HMYQPLYEQIKRMLTQSLIDGEWKAGEMIPSEMELAARFKVSQGTVRKAIDELVSENILMRRQGKGTFVH :: FALSE

Input: Reported soluble fraction (log2) reaches at least -0.02 for "HMGPYGAGSAAPAEDGSGPEGWTVKGNAKSMLYHTEGSPYYGRTNADVWFRDEESAEAAGFRRWDRK" ?
Output: TRUE

Input: Reported soluble fraction (log2) reaches at least -0.02 for "HMEGVNLTVQEAKQMAAIIAPLLKQGQSPYQIVTNHPELGISEKTLYNYIENDVFHEIAGITVMDL" ?
Output: FALSE

Input: Reported soluble fraction (log2) reaches at least -0.02 for "HMGGKWKLRILLALENSAQDALRYGEIKNIVSGITDMMLSQSLRELTADGLIERRQYQEIPPKVEYRLS" ?
Output: FALSE

Input: Reported soluble fraction (log2) reaches at least -0.02 for "HMDDFTEVLLQYLKDHDGYSSIHDKTDAETIYNTFGVSKKTFKKAVGDLYKKRLIVLEEEGIRLLG" ?
Output: FALSE

Input: Reported soluble fraction (log2) reaches at least -0.02 for "HMSKYGIAYSEVLEILKHIPIEDYNKIPRNEIELFETYADKDFTFNYDSSKTLEEQNVSNITKGIIIL" ?
Output: FALSE

Input: Reported soluble fraction (log2) reaches at least -0.02 for "HMGISNEETFLLEKMSSGRRYSRKELDNLMGFEKTKTIRLLGSLINKGLVVAEGVNRARRYIR" ?
Output: FALSE

Input: Reported soluble fraction (log2) reaches at least -0.02 for "HMSFSSLSNDILSEIQKDNNITYDELSEKLQKDRATIYRNMKKLVENGLLKRVGGRKSGHWEIIE" ?
Output: TRUE

Input: Reported soluble fraction (log2) reaches at least -0.02 for "HMEQTMNDMLKLVDLLPQNQQDIVRMRFYENMSFKEIAESNQISINTALGRMRYAILNLRKYAAERNL" ?
Output: FALSE

Input: Reported soluble fraction (log2) reaches at least -0.02 for "HMSSTPEPPQAVLDLVNLREQARAGKDWTQSDAFRQQIAALGWTVKDTKDGPVVSLSPTTTE" ?
Output: TRUE

Input: Reported soluble fraction (log2) reaches at least -0.02 for "HMDDFGERLRKLRVAQDLTQQQLGEKLGVVPSTIGKYEKVKDSYPSIEVLIKLSDFFSVSTDYLLKG" ?
Output: FALSE

Input: Reported soluble fraction (log2) reaches at least -0.02 for "HMKKTPLSELTNRAVELFIETVFMERNYSVSSQRQFISALKIFTVFYPQTKIHNLSLERLQSSFDKLLN" ?
Output: FALSE

Input: Reported soluble fraction (log2) reaches at least -0.02 for "HMKTEIKSPLPGIVLKIFVRTGEYVDKNQRLFSLEAMKMENEIKAERAGVIAGIRISEGQSVLQDEVIMEM" ?
Output: FALSE

Input: Reported soluble fraction (log2) reaches at least -0.02 for "HMVIDFYDPQTKVIHEIKKSSAKEEAHVWQVKYYIYLFEKEEIMGVKGVLEYPLLREIVSVNF" ?
Output: TRUE

Input: Reported soluble fraction (log2) reaches at least -0.02 for "HMDPQDGTVKFFNGARGFGFITPDGGGADVFVHVSAVERAGLTQLVEGQRVNFQTLPDTKGKGPKAVNLKV" ?
Output: TRUE

---

Experiment: soluble fraction after stress (log2 fold change); higher = more stays soluble; pooled small domains, quantitative proteomics
Settings: stress: 50 degC
result-type: soluble fraction (log2)
Give only the figure.

Recorded soluble fraction (log2), per entry:
HMAEPTLNERLREALSDPAKLKIAKAIKAKYPIITARDIDTFLNMHEKDIENGADPMDEFEEFFHANY :: 0.127
HMQYKTRVINLSILEVGMVLGRDLINKDGKIIVKKDVAISDFLKDHLIGLSKIKEIEPQIYIKV :: -1.08
HMLKPQQTQRIYAMAARLGVLESGNKNDMLHTIVYRLTQKESIRSLNENEYKTVVSELAERLKL :: -0.97
HMDSGLEQAKTAALENAELETSQVTFIKAELDYDDGKKVYEIEFVTSAMKYEYQVKADDFSILEMSKETIE :: -0.39
HMIELTTDYKKRVVEALVSARENYSGSDSDFARKWSIDKTVYSRLKKGYQEGLLSVGKYIELGMELNVSSR :: -1.34
HMVQMNMLELQEEMQRDRSWIIKHLFQDEYFRRKIAKFSQFPINDSGKYLFHRKSMLKFLNDYAEEIVER :: -2.56

Input: Sample "HMSNLKKRRLEKNLTLDDVGKLVGVSAATISRWESGDIENMRSDKIVKLANALEISPAVILGW" — what was its soluble fraction (log2)?
Output: -0.0215

Input: Sample "HMSDHYEVLGVDRNATDDQIKKAYRRLARELHPDVNDAPESQEKFKLVTHAYEVLSDPDERRKYDMG" — what was its soluble fraction (log2)?
Output: 0.0925

Input: Sample "HMNYKNAIGQVGSVYVPIPPNREGLGQIEVKVQSRVSTVRAVSDHSERLENRVAVRVIELVDDRTLLVEKL" — what was its soluble fraction (log2)?
Output: -0.839

Input: Sample "HMTSPKSRIVSALLASPSRPEELAMRLGEDILTLMRTLTDFEASGIIQRLPDGRYTPTREYHLGLVDK" — what was its soluble fraction (log2)?
Output: 0.0852

Input: Sample "HMDTFNVIARQEIDGILYEYKIMTVEDYKNQSPENLAVIYENIKAVMEQYDLSEDDADAILVDLLG" — what was its soluble fraction (log2)?
Output: -1.12

Input: Sample "HMEVADAAQRKILQALQVQPLTVEQLSQELRTDTGDLLVSLSMMEITGLIRREAGNTFLAVFAPK" — what was its soluble fraction (log2)?
Output: -0.448

Input: Sample "HMKQNVEAVIKERAIEKARAQVKAVSTHMALEAQSLSKEQLEFEIERIAAQIIDKMPSDFWND" — what was its soluble fraction (log2)?
Output: -0.386

Input: Sample "HMWMEKEELLWNDIIRGGVERGELREDTDIQEAAALFRQVFIGLAYQMSFSDGLDVGILRKRFHHIYGLLT" — what was its soluble fraction (log2)?
Output: 0.0187

---

Experiment: soluble fraction after stress (log2 fold change); higher = more stays soluble; pooled small domains, quantitative proteomics
Conditions: stress: 50 degC
result-type: soluble fraction (log2)
Give only the figure.

HMEDIQPSVIFQNNMIDGFKKFGVSFLQNRRNVNVNTLNGLASAGTYPKWQQLLVNKISYIDMLLSTGG :: 0.0785
HMAEKNALWEEDAVYAADSSALARDGYDAIVRTDKGGKKGYLVVGTGGRERFMPLQTLVMLGYLKK :: -0.065
HMAEANTEADFVAIGVRAELLPILQKLGVHTIEQLKGIKATKLFNDIPGMRKKLKLDAVQNPTLQEIEGWL :: 0.00541
HMVAMGQRVVPLTHLSIDDVRRLLESTYGKDSGIEVTKPGTAAKGVIVTAPRTELDGIVALVKQA :: 0.0987
HMAAEFERKNGIVYFFHSSEKPHLNYPHVHARYGEDTISISLRDFTVIGSFSSKKKQKEAVEYVKNK :: -0.662

Input: Sample "HMSDGDFLQKIAEEILAQFPDKVKEYQKGKKGLIGFFMGELMKRSKGKADPKVATRILEEILSEKNGSS" — what was its soluble fraction (log2)?
Output: 0.17

Input: Sample "HMYEVVPNMRGLTYNQATAALAAAGLKVELSDSIYDEHTQPGTVLDQSPRPNTKVKPNRVVYLTVNAF" — what was its soluble fraction (log2)?
Output: -0.739

Input: Sample "HMLDIQKKGENIAYIEGAGDVIPESLKQIGYHVVTIAPKDINAETLSRFDAVVVGIRAYNTVEDL" — what was its soluble fraction (log2)?
Output: -0.244

---

Assay: soluble fraction after stress (log2 fold change); higher = more stays soluble; pooled small domains, quantitative proteomics
Conditions: stress: 50 degC
Rule: soluble fraction (log2) under -0.3 gives N, otherwise Y.

HMNQPRQRKVIFELIDERNALERVLMHFAHLEKQVEKIDERKYQVTLYYDKEDETEILIRVLSFG :: N
HMGLVVIGTEAGYPAEKAGILAGDRIRKLNGAAVPDYDTFLTALAARKGEPSAIELERDGKTLEVTVSPL :: Y
HMRDPVDKDNYLGDWDKNKTYPAGYVMTFGDKNYLALQEVPAGTKPGATDPDPFWVLDTGKTLKD :: Y
HMLPRNKRIEIALTYIYGLGRHAATVVLKHANISPDKRTDDLDENDVRKLRDAIDANFRVEGDLRR :: Y
HMQKAQEYILVDIKGEVQTPGVYKLPVNSRVIDAIEASGGLTKKAVTTYINLSKTLKDENVIIINKKSEL :: Y
HMNTKHVFIIEQDDEKKRLDIFLVEKLQDSRSFLKKGIVEGWVKVNESVVKPNYKLKQKDQITVIIPP :: Y

Consider the record given below.
Input: Reported soluble fraction (log2) reaches at least -0.3 for "HMIDIDNLEKAAILLLSMGTEAAAKVMQKLSRDEVQRLISKMASLSGVSSIEAKWTLQQFFNQYREQSG" ?
Output: N
